Listed below: IC50 values for each entry.
system_tested: AURORA A (Homo sapiens, UniProt O14965)
Sequence (O14965 whole entry): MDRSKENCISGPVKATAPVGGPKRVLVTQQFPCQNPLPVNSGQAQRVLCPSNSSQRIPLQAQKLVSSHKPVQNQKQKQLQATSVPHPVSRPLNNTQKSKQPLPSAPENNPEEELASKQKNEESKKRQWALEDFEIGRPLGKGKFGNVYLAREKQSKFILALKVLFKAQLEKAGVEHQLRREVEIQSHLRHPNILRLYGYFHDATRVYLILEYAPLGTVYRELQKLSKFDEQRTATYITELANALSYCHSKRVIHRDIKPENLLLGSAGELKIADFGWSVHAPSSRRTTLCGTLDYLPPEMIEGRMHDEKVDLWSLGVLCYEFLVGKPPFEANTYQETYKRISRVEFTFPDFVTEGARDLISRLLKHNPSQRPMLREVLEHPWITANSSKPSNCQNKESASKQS
measurement_description: In vitro filtration assay for AURORA A inhibitory activity
Assay type: biochemical
condition_details: Kemptide substrate, 1 μM unlabeled ATP, 25° C. 40 minutes, read-out: Aurora A see C.2 (pIC50) (converted)

CN(C)CCOC(=O)c1ccc(Nc2ncc3[nH]c(=O)n(C4CCCCC4)c3n2)cc1 [compound 82]    > 10 µM

# input Consider the molecule shown here: OCCN1CCC(NCc2ccc(Nc3ncc4cnn(C5CCCCC5)c4n3)cc2)CC1 [compound 75] What is its recorded IC50?
# output 1.58 µM

# input Item: COCCCN1CCC(NCc2ccc(N(C(=O)OC(C)(C)C)c3ncc4cnn(C5CCCCC5)c4n3)cc2)CC1 [compound 76]
# output > 10 µM

# input Item: CN1CCN(c2ccc(Nc3ncc4[nH]c(=O)n(C5CCCCC5)c4n3)cc2)CC1 [Co. No. 6]
# output > 10 µM

# input Item: CN1CCN(Cc2ccc(N(C(=O)OC(C)(C)C)c3ncc4cnn(C5CCOCC5)c4n3)cc2)CC1 [compound 48]
# output > 10 µM

# input Item: COCCCN1CCN(Cc2ccc(N(C(=O)OC(C)(C)C)c3ncc4cnn(C5CCCCC5)c4n3)cc2)CC1 [compound 42]
# output > 10 µM

# input Item: c1cc(Nc2ncc3cnn(C4CCCCC4)c3n2)ncc1N1CCNCC1 [compound 30]
# output > 10 µM

# input Item: O=c1[nH]c2cnc(Nc3ccc(N4CCOCC4)nc3)nc2n1C1CCCCC1 [compound 81]
# output > 10 µM
